Molecular target: Recombinant human ULK1 (1-649) (Homo sapiens (Human))
Assay: ULK1 ADP Glo kinase activity assay (MBP substrate)
Details: 25° C., 40 minutes, read-out: ULK1 biochemical IC50
# IC50 annotations

Observe how each entry below is paired with its result.
CN1CCN(c2ccc(Nc3ncc(C(F)(F)F)c(-c4cc(S(C)(=O)=O)cs4)n3)cc2)CC1 : ≤ 10 nM
CS(=O)(=O)c1csc(-c2nc(Nc3cc4c(cc3C3CC3)CNC4)ncc2C(F)(F)F)c1 : ≤ 10 nM
CCN1CCS(=O)(=O)c2cc(-c3nc(Nc4cc5c(cc4Cl)CNCC5)ncc3C(F)(F)F)sc2C1=O : ≤ 10 nM

Q: What value of IC50 has been recorded for this entry: CS(=O)(=O)c1csc(-c2nc(Nc3cc4c(cc3Cl)CN(CC(F)(F)F)CC4)ncc2C(F)(F)F)c1
Result: 100 to 500 nM

###

Molecular target: Recombinant human ULK1 (1-649) (Homo sapiens (Human), UniProt O75385)
Sequence (O75385 1-649): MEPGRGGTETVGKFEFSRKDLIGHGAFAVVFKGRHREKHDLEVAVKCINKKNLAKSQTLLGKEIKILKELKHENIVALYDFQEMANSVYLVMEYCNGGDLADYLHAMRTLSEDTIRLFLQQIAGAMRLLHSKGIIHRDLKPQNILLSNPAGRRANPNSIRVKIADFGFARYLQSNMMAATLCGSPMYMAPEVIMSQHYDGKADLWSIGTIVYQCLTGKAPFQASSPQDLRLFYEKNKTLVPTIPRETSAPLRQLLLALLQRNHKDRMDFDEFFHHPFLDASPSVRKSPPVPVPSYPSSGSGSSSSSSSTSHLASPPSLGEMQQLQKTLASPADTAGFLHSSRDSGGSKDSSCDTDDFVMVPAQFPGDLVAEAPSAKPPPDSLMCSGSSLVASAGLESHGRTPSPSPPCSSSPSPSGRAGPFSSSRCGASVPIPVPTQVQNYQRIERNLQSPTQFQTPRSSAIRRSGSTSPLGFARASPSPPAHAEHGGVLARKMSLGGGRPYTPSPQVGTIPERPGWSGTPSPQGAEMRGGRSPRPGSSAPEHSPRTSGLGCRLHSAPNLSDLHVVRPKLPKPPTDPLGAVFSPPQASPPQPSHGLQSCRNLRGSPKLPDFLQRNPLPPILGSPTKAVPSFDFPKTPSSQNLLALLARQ
Assay: ULK1 ADP Glo kinase activity assay (MBP substrate)
Conditions: 25° C., 40 minutes, read-out: ULK1 biochemical IC50
pIC50: −log10 of the molar value.
measureName: pIC50

Q: What value of pIC50 has been recorded for this entry: CS(=O)(=O)c1cc(-c2nc(Nc3cc4c(cc3Cl)CNCC4)ncc2C(F)(F)F)sc1C1=CCOCC1
Result: ≥ 8.00

Q: What value of pIC50 has been recorded for this entry: O=C1NCCOc2sc(-c3nc(Nc4cc5c(cc4Cl)CNCC5)ncc3C(F)(F)F)cc21
Result: ≥ 8.00

Q: What value of pIC50 has been recorded for this entry: CN1CCC(n2cc(Nc3ncc(C(F)(F)F)c(-c4cc5c(s4)CCNC5=O)n3)c(C3CC3)n2)CC1
Result: ≥ 8.00

Q: What value of pIC50 has been recorded for this entry: CS(=O)(=O)c1csc(-c2nc(Nc3cc4c(cc3F)CCNC4)ncc2C(F)(F)F)c1
Result: ≥ 8.00

Q: What value of pIC50 has been recorded for this entry: COCCOc1sc(-c2nc(Nc3cc4c(cc3Cl)CN(C)CC4)ncc2C(F)(F)F)cc1C(N)=O
Result: ≥ 8.00

Q: What value of pIC50 has been recorded for this entry: CCN1CCc2sc(-c3nc(Nc4cc5c(cc4Cl)CNCC5)ncc3C(F)(F)F)cc2C1=O
Result: ≥ 8.00

Q: What value of pIC50 has been recorded for this entry: CS(=O)(=O)c1cc(-c2nc(Nc3cc4c(cc3Cl)CNCC4)ncc2C(F)(F)F)sc1C(=O)N1CCOCC1
Result: 6.30 to 7.00

Q: What value of pIC50 has been recorded for this entry: FC(F)(F)c1cnc(Nc2cc3c(cc2Cl)CNCC3)nc1-c1cc(C2=NCCO2)cs1
Result: 7.30 to 8.00

###

# pIC50 annotations
Molecular target: Recombinant human ULK1 (1-649) (Homo sapiens (Human))
Assay: ULK1 ADP Glo kinase activity assay, new method (ULKtide peptide substrate)
Settings: 25° C., 40 minutes, read-out: ULK1 biochemical IC50
pIC50: −log10 of the molar value.

Observe how each entry below is paired with its result.
CN1C2CC1CN(c1ccc(Nc3ncc(C(F)(F)F)c(-c4cc5c(s4)C(=O)N(C4CC4)CCS5(=O)=O)n3)c(C3CC3)c1)C2 : ≥ 8.30
CN1CCc2cc(Nc3ncc(C(F)(F)F)c(-c4cc5c(s4)C(=O)N(CC4CC4)CCS5(=O)=O)n3)c(Cl)cc2C1 : ≥ 8.30

From here, focus on the item given below.
Q: What value of pIC50 has been recorded for this entry: CCc1cc(N2C[C@@H](C)N(C)[C@@H](C)C2)ccc1Nc1ncc(C(F)(F)F)c(-c2cc3c(s2)C(=O)N(C2COC2)CCS3(=O)=O)n1
Result: ≥ 8.30
